Listed next: entries and their corresponding RGA Efficacy (%).
# Target under test: T1, murine IL-11 (mouse, UniProt P47873 22-199)
# T1 sequence: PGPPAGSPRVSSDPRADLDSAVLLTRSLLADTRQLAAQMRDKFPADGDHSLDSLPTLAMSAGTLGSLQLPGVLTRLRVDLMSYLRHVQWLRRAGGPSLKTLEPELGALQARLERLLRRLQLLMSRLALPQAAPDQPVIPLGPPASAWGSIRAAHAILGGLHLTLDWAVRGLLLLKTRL
# Test protocol: cell-based or functional assay
The reply should contain only the number, in %.

TPP-26301 (antibody, V domains shown) VH: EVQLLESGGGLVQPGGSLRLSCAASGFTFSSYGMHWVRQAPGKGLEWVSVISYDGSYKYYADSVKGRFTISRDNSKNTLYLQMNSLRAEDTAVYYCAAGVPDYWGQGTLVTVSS VL: QSVLTQPPSASGTPGQRVTISCTGSSSNIGADYDVHWYQQLPGTAPKLLIYSNNERPSGVPDRFSGSKSGTSASLAISGLRSEDEADYYCAAWDDSLNGPVFGGGTKLTVL = 91.8
TPP-26304 (antibody, V domains shown) VH: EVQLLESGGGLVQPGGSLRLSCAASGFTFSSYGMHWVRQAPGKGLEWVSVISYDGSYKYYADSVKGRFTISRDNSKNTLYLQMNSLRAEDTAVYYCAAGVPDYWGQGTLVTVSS VL: QSVLTQPPSASGTPGQRVTISCTGSSSNIWAGYDVHWYQQLPGTAPKLLIYSNNERPSGVPDRFSGSKSGTSASLAISGLRSEDEADYYCAAWDDSLNGPVFGGGTKLTVL = 95.2

Exercise: Give the measured RGA Efficacy (%) for TPP-26302 (antibody, V domains shown) VH: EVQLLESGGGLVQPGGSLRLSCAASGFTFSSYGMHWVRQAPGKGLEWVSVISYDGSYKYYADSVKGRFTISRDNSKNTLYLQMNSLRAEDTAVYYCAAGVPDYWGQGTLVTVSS VL: QSVLTQPPSASGTPGQRVTISCTGSSSNIGAGYDVHWYQQLPGTAPKLLIYSNNERPSGVPDRFSGSKSGTSASLAISGLRSEDEADYYCSAWDDSLNGPVFGGGTKLTVL
Solution: 94.3

Exercise: Annotate the binder TPP-26326 (antibody, V domains shown) VH: EVQLLESGGGLVQPGGSLRLSCAASGFTFSYYGMHWVRQAPGKGLEWVSVISYDGSYKYYADSVKGRFTISRDNSKNTLYLQMNSLRAEDTAVYYCAAGVPDYWGQGTLVTVSS VL: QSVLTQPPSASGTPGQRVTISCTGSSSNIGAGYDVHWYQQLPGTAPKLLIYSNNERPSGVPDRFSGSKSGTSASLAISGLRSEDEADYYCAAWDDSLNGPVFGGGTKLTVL with its measured RGA Efficacy (%).
Solution: 83
